Where do these numbers come from? They come from paper PMC2586337.

Target system: primase (UL5/UL8/UL52) (Human herpesvirus 1)
Protocol description: Inhibition of NTP polymerization onto primer:templates
Format: biochemical
Condition description: inhibition of ATP polymerization, ATP (100 μM), DNAT
Property measured: IC50

>>> print(df.to_string())
                                   compound   result
0  Nc1ncnc2c1ncn2[C@@H]1O[C@H](COP(=O)(O)O)[C@@H](O)[C@H]1O [AMP]  > 10 mM

Okay, next one:
Challenge: Which IC50 value belongs to Nc1ncnc2c1ncn2[C@@H]1O[C@H](COP(=O)(O)OP(=O)(O)O)[C@@H](O)[C@H]1O [ADP] ?
Response given: > 10 mM

====

Target system: primase (UL5/UL8/UL52) (Human herpesvirus 1, UniProt P10236)
Sequence (P10189 whole entry): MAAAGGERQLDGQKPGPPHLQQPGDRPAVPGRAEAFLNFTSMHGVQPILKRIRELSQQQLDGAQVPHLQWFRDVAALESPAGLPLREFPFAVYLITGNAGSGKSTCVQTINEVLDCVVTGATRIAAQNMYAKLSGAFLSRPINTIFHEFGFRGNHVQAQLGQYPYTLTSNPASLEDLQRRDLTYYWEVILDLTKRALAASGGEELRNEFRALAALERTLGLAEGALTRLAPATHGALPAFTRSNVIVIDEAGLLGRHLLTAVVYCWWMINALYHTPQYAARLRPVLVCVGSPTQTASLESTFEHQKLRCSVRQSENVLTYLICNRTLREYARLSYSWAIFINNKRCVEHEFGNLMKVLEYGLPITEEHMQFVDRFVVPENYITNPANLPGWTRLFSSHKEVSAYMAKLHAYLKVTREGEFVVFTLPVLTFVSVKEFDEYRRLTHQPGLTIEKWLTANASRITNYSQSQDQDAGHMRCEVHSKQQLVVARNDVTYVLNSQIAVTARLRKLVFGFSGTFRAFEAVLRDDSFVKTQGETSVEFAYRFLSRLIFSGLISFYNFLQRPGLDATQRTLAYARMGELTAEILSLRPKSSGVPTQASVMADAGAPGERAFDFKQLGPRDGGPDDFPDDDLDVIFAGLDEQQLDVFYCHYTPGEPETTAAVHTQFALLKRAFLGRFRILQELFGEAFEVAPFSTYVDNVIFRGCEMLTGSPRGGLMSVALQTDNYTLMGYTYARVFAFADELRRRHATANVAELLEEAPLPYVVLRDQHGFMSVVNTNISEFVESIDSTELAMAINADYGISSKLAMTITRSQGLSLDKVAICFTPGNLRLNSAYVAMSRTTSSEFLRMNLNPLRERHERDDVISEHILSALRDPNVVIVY
Sequence (P10192 whole entry, further chain): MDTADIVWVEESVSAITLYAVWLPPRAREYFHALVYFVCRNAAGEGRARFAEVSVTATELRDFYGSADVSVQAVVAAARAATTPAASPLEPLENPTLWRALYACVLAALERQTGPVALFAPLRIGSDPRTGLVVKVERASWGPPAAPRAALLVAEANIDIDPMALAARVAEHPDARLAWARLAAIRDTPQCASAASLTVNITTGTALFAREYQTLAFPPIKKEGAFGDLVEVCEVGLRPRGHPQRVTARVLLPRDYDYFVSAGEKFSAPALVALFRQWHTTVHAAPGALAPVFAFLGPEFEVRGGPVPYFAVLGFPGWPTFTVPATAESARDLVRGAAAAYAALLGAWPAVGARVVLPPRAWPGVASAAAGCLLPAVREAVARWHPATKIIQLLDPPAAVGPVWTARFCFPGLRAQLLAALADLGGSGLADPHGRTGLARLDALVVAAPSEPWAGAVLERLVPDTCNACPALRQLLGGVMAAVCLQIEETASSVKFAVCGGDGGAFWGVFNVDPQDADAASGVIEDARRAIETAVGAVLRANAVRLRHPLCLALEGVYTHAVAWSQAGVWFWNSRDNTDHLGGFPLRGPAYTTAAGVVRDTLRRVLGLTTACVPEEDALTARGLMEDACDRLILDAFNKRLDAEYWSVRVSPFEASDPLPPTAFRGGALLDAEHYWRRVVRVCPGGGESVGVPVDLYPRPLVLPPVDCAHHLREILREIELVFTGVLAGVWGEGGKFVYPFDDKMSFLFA
Sequence (P10236 whole entry): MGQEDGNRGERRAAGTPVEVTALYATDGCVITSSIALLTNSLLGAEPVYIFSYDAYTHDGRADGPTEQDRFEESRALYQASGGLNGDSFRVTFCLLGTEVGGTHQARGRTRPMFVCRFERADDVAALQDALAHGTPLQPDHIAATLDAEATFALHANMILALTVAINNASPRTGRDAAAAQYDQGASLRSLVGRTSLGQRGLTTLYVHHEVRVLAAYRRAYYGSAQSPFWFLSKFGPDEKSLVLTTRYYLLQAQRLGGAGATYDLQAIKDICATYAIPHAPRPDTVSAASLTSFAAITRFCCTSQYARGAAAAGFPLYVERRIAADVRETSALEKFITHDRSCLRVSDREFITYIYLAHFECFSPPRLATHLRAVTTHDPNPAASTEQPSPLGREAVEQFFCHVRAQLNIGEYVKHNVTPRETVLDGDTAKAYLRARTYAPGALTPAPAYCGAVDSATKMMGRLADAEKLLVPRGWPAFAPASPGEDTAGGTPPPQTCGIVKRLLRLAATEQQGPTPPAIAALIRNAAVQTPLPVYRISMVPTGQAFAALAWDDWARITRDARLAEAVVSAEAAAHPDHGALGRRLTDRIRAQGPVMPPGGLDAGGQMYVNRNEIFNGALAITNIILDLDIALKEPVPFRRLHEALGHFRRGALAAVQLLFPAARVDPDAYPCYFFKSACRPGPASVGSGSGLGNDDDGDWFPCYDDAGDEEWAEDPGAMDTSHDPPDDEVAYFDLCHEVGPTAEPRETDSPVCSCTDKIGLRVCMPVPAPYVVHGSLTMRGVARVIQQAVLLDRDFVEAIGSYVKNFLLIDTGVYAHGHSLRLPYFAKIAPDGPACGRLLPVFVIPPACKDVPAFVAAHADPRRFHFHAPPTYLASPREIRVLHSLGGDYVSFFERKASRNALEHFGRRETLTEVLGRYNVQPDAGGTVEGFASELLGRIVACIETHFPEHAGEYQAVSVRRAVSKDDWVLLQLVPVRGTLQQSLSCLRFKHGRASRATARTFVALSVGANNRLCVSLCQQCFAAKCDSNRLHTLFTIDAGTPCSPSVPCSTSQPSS
Protocol description: Polymerization of nucleoside triphosphates onto a RNA primer:DNA template
Type: biochemical, herpes simplex virus I
Condition description: primer:template DNAT, DNAC or DNAG
Met means recorded VMax is 0.2 pmol/h or above; Not met means it is below 0.2 pmol/h.

The examples below pair each entry with its known result.
Compound	Class
Nc1ccn([C@@H]2O[C@H](COP(=O)(O)OP(=O)(O)OP(=O)(O)O)[C@@H](O)[C@@H]2O)c(=O)n1 [AraCTP, arabinofuranosylcytosine triphosphate]	Met
Nc1ncnc2c1ncn2[C@@H]1O[C@H](COP(=O)(O)OP(=O)(O)OP(=O)(O)O)[C@@H](O)[C@@H]1O [AraATP, arabionfuranosyladenine triphosphate]	Not met
Nc1nc2c(ncn2[C@@H]2O[C@H](COP(=O)(O)OP(=O)(O)OP(=O)(O)O)[C@@H](O)[C@H]2O)c(=O)[nH]1	Not met
Nc1ccn([C@H]2C[C@H](O)[C@@H](COP(=O)(O)OP(=O)(O)OP(=O)(O)O)O2)c(=O)n1	Not met
Nc1ccn([C@@H]2O[C@H](COP(=O)(O)OP(=O)(O)OP(=O)(O)O)[C@@H](O)[C@H]2O)c(=O)n1	Met

Next item in the queue.
Challenge: Textbook exercise: given the entry Nc1nc2c(ncn2[C@@H]2O[C@H](COP(=O)(O)OP(=O)(O)OP(=O)(O)O)[C@@H](O)[C@@H]2O)c(=O)[nH]1 [AraGTP, arabinofuranosylguanine triphosphate] , state whether its VMax is greater than or equal to 0.2 pmol/h.
Response given: Not met

====

Target system: primase (UL5/UL8/UL52) (Human herpesvirus 1)
Protocol description: Polymerization of nucleoside triphosphates onto a RNA primer:DNA template
Type: biochemical, herpes simplex virus I
Condition description: primer:template with next correct NTP: DNAT (ATP), DNAC (GTP), DNAG (CTP)
Listing of entries alongside the reported Km.
Include the unit right after the number.

Example compounds with recorded Km:
Compound	Result
Nc1nc2c(ncn2[C@@H]2O[C@H](COP(=O)(O)OP(=O)(O)OP(=O)(O)O)[C@@H](O)[C@@H]2O)c(=O)[nH]1 [AraGTP, arabinofuranosylguanine triphosphate]	300 µM
Nc1ncnc2c1ncn2[C@@H]1O[C@H](COP(=O)(O)OP(=O)(O)OP(=O)(O)O)[C@@H](O)[C@H]1O [ATP]	1700 µM

Okay, next one:
Challenge: Which Km value belongs to Nc1nc2c(ncn2[C@H]2C[C@H](O)[C@@H](COP(=O)(O)OP(=O)(O)OP(=O)(O)O)O2)c(=O)[nH]1 [2′-dGTP] ?
Response given: 130 µM
